Target: T1, EsCas13d, nuclease-dead (Eubacterium siraeum, UniProt B0MS50, R295A;H300A;R849A;H854A)
T1 sequence: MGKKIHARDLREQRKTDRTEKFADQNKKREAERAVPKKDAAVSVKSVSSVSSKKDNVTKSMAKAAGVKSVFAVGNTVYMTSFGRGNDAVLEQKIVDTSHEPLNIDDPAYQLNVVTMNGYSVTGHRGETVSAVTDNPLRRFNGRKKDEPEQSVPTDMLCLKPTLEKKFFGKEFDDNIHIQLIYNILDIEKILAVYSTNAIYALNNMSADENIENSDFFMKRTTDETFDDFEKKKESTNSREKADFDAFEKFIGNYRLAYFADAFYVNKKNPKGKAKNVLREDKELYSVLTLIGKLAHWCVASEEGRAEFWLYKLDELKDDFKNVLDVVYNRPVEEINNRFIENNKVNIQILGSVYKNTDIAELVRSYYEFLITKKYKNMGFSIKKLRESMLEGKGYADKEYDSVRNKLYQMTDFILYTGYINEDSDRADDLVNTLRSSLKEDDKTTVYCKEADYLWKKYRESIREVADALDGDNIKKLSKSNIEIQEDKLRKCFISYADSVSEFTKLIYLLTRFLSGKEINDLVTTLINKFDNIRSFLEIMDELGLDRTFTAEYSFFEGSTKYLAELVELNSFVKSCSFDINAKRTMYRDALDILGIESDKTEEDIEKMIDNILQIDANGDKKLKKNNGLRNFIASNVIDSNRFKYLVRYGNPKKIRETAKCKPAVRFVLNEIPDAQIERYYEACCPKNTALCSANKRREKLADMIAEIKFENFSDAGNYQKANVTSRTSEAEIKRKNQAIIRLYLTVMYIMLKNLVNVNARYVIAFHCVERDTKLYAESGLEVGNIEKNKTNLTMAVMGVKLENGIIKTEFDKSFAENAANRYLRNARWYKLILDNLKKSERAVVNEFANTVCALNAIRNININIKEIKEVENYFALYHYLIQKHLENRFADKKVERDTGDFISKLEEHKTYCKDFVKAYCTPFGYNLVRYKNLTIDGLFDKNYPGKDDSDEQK
Experiment: crRNA (strand 1, pre-loaded); Mg2+; 40 mM Tris-HCl pH 7.5, 150 mM NaCl, 6 mM MgCl2, 1 mM DTT, 0.1% Tween-20, 0.2 mg/ml BSA; 25 C; 10 min per concentration, then washed
Details: tags: His6-TwinStrep-SUMO cleaved; N-terminal SNAP kept (SNAP-Surface 488); label: 3' end held by stalled T7 RNA polymerase

binder	Kd / nM
target 2 MT 5'PFS UUG 3'PFS AGG (mixed) RNA 1: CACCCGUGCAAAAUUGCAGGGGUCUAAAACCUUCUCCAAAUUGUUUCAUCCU RNA 2: GGGAAUGGAUCCACAUCUACGAAUUCUUGAGGAUGAAACAAUUUGGAGAAGAGGAGAUCGGAAGAGCACACGU	14.1
target 2 MT 5'PFS GGG 3'PFS UGC (mixed) RNA 1: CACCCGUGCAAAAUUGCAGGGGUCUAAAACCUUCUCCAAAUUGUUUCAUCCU RNA 2: GGGAAUGGAUCCACAUCUACGAAUUCGGGAGGAUGAAACAAUUUGGAGAAGUGCAGAUCGGAAGAGCACACGU	12.8
target 1 C7G,A14G (mixed) RNA 1: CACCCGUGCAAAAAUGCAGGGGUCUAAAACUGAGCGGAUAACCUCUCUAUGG RNA 2: GGGAAUGGAUCCACAUCUACGAAUUCGUACCAUAGAGGGGUUAUGCGCUCACCGAGAUCGGAAGAGCACACGU	17.7
target 2 MT 5'PFS ACU 3'PFS ACG (mixed) RNA 1: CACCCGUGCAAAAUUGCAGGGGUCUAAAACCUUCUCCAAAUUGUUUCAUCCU RNA 2: GGGAAUGGAUCCACAUCUACGAAUUCACUAGGAUGAAACAAUUUGGAGAAGACGAGAUCGGAAGAGCACACGU	9.5
